# assay text: MAD study plasma pharmacokinetics
# Assay type: in vivo, human
# condition summary: human, plasma, oral, 100 mg
metric: half-life

Any idea what half-life was measured for CNc1nc(Nc2ccc(-n3cnc(C)n3)c(OC)c2)nc2c1CC[C@H]2c1ccc(F)cc1 ?
29 h

----------
# assay text: MAD study plasma pharmacokinetics
# Type: in vivo, human
# condition summary: human, plasma, oral, 50 mg, Cmax GM (CV%), MAD panel 1, 50 mg once daily, day 28
metric: Cmax (ng/mL)
Give your result in ng/mL as a bare value.

Given CNc1nc(Nc2ccc(-n3cnc(C)n3)c(OC)c2)nc2c1CC[C@H]2c1ccc(F)cc1 [BMS-932481] , state its recorded Cmax.
293
